Cited source: PubChem BioAssay (NCI)

System: HOP-92 NSCLC
Experiment: NCI-60 one-dose screen, 48 h (100 = growth as untreated, 0 = no growth, -100 = all killed)
Settings: 10 µM unless noted
About 83,000 compounds went through this panel and 20% of them were active in at least one assay; those are over-represented in the sample as a whole.
Measured quantity: growth (%)

> print(dat)
                    structure.smiles.string  result.units  numeric.value
1  COc1cc2nc(-c3ccc(-c4nn[nH]n4)cc3)[nH]c(=O)c2cc1OC             %            132
2  Nc1c(C(=O)Nc2ccc(Cl)cc2)cc(-c2nc3ccccc3s2)c(=O)n1NS(=O)(=O)c1ccc(Cl)cc1             %           96.2
3  COc1ccc(-c2c[nH]c(C(=O)O)c2-c2cc(OC)c3c(c2OC)OCO3)cc1             %            110
4  CCc1nc(C)cn1C(=O)OCc1nc2nc(Cl)nc(N3CCOCC3)c2[nH]1             %          -50.2
5  C#CCn1cc(C=C2C(=O)NC(=S)NC2=O)c2cc(Cl)ccc21             %           48.4
6  COc1nc(N)nc(-n2c(-c3ccc(C)cc3)nc3ccccc32)c1NCc1ccc(C)cc1             %           78.2
7  O=C(NCCN1CCOCC1)OCc1nc2nc(Cl)nc(N3CCOCC3)c2[nH]1             %           54.3
8  Cc1cc(C)n(Nc2nc3ccccc3[nH]c2=O)c(=O)c1C#N             %           76.2
9  NC(=O)c1cccc(-n2ccc3cc(NC(=O)Nc4cc(C(F)(F)F)cc(C(F)(F)F)c4)ccc32)n1             %           52.5
